- MEASURED TARGET: AR (Homo sapiens (Human), UniProt P10275, T878A)
- Sequence (P10275 whole entry T878A): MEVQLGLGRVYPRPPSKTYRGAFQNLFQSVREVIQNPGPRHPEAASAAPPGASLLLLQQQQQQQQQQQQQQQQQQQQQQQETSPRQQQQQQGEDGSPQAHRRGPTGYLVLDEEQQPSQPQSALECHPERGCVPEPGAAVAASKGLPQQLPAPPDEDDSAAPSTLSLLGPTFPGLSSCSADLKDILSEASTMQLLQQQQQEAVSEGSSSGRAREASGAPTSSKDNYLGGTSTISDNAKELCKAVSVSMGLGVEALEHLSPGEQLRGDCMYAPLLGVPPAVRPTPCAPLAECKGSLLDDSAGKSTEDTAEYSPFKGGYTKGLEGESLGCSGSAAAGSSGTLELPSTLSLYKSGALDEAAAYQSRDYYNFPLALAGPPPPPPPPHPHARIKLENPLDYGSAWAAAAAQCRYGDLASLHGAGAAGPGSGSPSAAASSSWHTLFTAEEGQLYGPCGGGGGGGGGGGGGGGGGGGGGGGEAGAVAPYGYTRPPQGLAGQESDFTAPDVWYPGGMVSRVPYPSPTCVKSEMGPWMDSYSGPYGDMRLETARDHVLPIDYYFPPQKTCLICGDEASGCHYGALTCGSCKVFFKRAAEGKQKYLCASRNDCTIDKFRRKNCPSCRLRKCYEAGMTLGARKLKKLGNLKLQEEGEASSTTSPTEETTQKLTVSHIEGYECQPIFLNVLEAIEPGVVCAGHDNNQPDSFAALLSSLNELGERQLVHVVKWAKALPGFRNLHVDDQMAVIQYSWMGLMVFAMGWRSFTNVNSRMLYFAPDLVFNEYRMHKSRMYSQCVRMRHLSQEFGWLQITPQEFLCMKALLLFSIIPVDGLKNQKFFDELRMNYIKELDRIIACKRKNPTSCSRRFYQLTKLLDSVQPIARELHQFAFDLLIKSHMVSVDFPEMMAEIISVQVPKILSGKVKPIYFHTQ
- ASSAY OVERVIEW: AR binding assay
- ASSAY CONDITIONS: cytosol from LnCaP cells, 3H-R1881 1 nM, 4° C. 24 hrs; read-out: AR binding
METRIC NAME: IC50

Prompt line: Look at this compound and give its reported IC50. CC[C@@]1(O)C(=O)OCc2c1cc1n(c2=O)Cc2cc3c(CN4CCC(N(C)C(=O)CO[C@H]5CC[C@H]6[C@@H]7CC[C@H]8CC(=O)CC[C@]8(C)[C@H]7CC[C@]56C)CC4)c(O)ccc3nc2-1 [Compound 18]
Response line: 10 to 500 nM

Prompt line: And then CC[C@@]1(O)C(=O)OCc2c1cc1n(c2=O)Cc2cc3c(CN4CCN(C(=O)C5CCN(c6ccc(C(=O)N[C@H]7CC[C@H](Oc8ccc(C#N)c(Cl)c8)CC7)nn6)CC5)CC4)c(O)ccc3nc2-1 [Compound 14] , what is it?
Response line: 10 to 500 nM

Prompt line: Entry to check: CC[C@@]1(O)C(=O)OCc2c1cc1n(c2=O)Cc2cc3c(CN4CCN(C(=O)CCCCCOc5ccc(C(=O)N[C@H]6CC[C@H](Oc7ccc(C#N)c(Cl)c7)CC6)cc5)CC4)c(O)ccc3nc2-1 [Compound 12]
Response line: > 1000 nM

* * *

So I've got a bunch of compounds here, and I need their GI50 values.
- System: MCF7 cells
- ASSAY OVERVIEW: Cell viability assay, MCF7
- Assay type: cell-based
- ASSAY CONDITIONS: Homo sapiens, MCF7, 144 h, read-out: MCF7 (GI50, nM)
- Protocol: Cell viability assay: LNCap, 22Rv1, MCF7, MDAMB361, T47D, and IEC6 cells are seeded at a density of 500-2000 cells/well in 96 well plates, and a ‘T0’ (timepoint 0) was included along with the assay plate. The plates are then incubated at 37° C., 5% CO2 in a cell culture incubator overnight. […] After the incubation period, the plates are assayed using CellTiterGlo (Promega, Inc) according to the manufacturer's instructions and luminescence was read on the EnVision plate reader. […]

Prompt line: Provide value of GI50 for this record tested with MCF7 cells: CC[C@@]1(O)C(=O)OCc2c1cc1n(c2=O)Cc2cc3c(CN(C)C)c(OC(=O)N4CCN(CCCCCCOc5cc(F)c(C6c7[nH]c8ccccc8c7CC(C)N6CC(C)(C)F)c(F)c5)CC4)ccc3nc2-1 (stereo in doubt)
Response line: 10 to 500 nM

Prompt line: Proceed to CCc1c2c(nc3ccc(OC(=O)N4CCN(C(=O)CCCCCOc5cc(F)c([C@@H]6c7[nH]c8ccccc8c7C[C@@H](C)N6CC(C)(C)F)c(F)c5)CC4)cc13)-c1cc3c(c(=O)n1C2)COC(=O)[C@]3(O)CC
Response line: 10 to 500 nM

Prompt line: Here is the next compound: CCc1c2c(nc3ccc(OC(=O)N4CCN(CCCCCCOc5cc(F)c([C@@H]6c7[nH]c8ccccc8c7C[C@@H](C)N6CC(C)(C)F)c(F)c5)CC4)cc13)-c1cc3c(c(=O)n1C2)COC(=O)[C@]3(O)CC
Response line: 10 to 500 nM

Prompt line: Also CC[C@@]1(O)C(=O)OCc2c1cc1n(c2=O)Cc2cc3c(COC(C)(C)C)c(OC(=O)N4CCN(CCCCCCN(C)c5ccc([C@H]6C[C@@]7(C)[C@@H](CC[C@]7(OC(C)=O)C(C)=O)[C@@H]7CCC8=CC(=O)CCC8=C76)cc5)CC4)ccc3nc2-1 ?
Response line: > 1000 nM

Prompt line: Try the compound CC[C@@]1(O)C(=O)OCc2c1cc1n(c2=O)Cc2cc3c(CN(C)C)c(OC(=O)N4[C@H](C)CN(CCCCCCN(C)c5ccc([C@H]6C[C@@]7(C)[C@@H](CC[C@]7(OC(C)=O)C(C)=O)[C@@H]7CCC8=CC(=O)CCC8=C76)cc5)C[C@H]4C)ccc3nc2-1
Response line: 10 to 500 nM
